Taken from PubChem BioAssay (NCI).

- Tested on: HCC-2998 colon
- Assay Comment: NCI-60 one-dose screen, 48 h (100 = growth as untreated, 0 = no growth, -100 = all killed)
- Condition Parameters: 10 µM unless noted
This is part of a sample that, as a whole, favours compounds with a hit. Of some 83,000 tested, about 20% had one in any assay.
The following molecules are shown together with reported growth values.
Quick reminder: number only, in %, skip the unit.

Record excerpt, results attached:
[
  {
    "Molecule": "CCOc1cc2c(Cl)ncnc2c(OCC)c1OCC",
    "growth (%)": -45.3
  },
  {
    "Molecule": "CN1CCN(CCCOc2ccc3nc(Nc4ccc(Cl)c(C(F)(F)F)c4)ccc3c2)CC1",
    "growth (%)": 6.68
  },
  {
    "Molecule": "Nc1nnc(-c2ccc3ccccc3c2O)o1",
    "growth (%)": 89.5
  },
  {
    "Molecule": "Cn1c(=O)c2[nH]c(C3CC=CCC3)nc2n(C)c1=O (centres undefined)",
    "growth (%)": 104
  },
  {
    "Molecule": "COc1ccc(-c2ccc(-c3ccc(C(=N)N)cn3)s2)cc1OC",
    "growth (%)": 109
  }
]

Incoming: Look at this molecule and give its reported growth. "Cc1c(C(N)=O)sc2c1c(=O)n(Cc1ccccc1)c1nnc(Nc3ccccc3)n21"
Outgoing: 110

Incoming: Reported growth, molecule Cc1ccc2[nH]c(=O)c3c(c2c1)Oc1ncn2nc(-c4ccco4)nc2c1C3c1ccc(Cl)cc1 (centres undefined) : ____
Outgoing: 98.1

Incoming: Return reported growth; argument: "CC(C)(C)n1cc(-c2ccnc(NCCCNS(=O)(=O)c3ccc(F)cc3)c2)c(-c2cccc(O)c2)n1"
Outgoing: 9.22

Incoming: Entry under review: "Cc1c(C(=O)/C=C/c2csc3ccccc23)[n+](=O)c2ccccc2n1[O-]" . Reported growth?
Outgoing: 78.5

Incoming: Sample COc1ccc2c(c1)OC1=C(C(=O)OC1)C2c1cc(OC)c2c(c1)OCO2 (centres undefined) — what was its growth?
Outgoing: 14.9
